# LPS % cell toxicity per entry for primary rat microglia
Counter-ions that a name gives are not always drawn.
reported-property: LPS % cell toxicity (%)

compound	obs-value
Cc1ccc(-c2nc3ccc(C)cn3c2CC(=O)N(C)C)cc1 [Zolpidem, Zolpidem Tartrate]	0
O=C(CNC(=O)c1ccc(Cl)cc1)NO	1
CO[C@H]1C[C@H](O[C@H]2[C@H](C)O[C@@H](O[C@@H]3/C(C)=C/C[C@@H]4C[C@@H](C[C@]5(C=C[C@H](C)[C@@H](C6CCCCC6)O5)O4)OC(=O)[C@@H]4C=C(C)[C@@H](O)[C@H]5OC/C(=C\C=C\[C@@H]3C)[C@]54O)C[C@@H]2OC)O[C@@H](C)[C@@H]1O	0
CC(=O)[C@]1(O)Cc2c(O)c3c(c(O)c2[C@@H](O[C@H]2C[C@H](N)[C@H](O)[C@H](C)O2)C1)C(=O)c1ccccc1C3=O.Cl [Idarubicin, Idarubicin Hydrochloride]	40
COc1cccc2c1C(=O)c1c(O)c3c(c(O)c1C2=O)C[C@@](O)(C(=O)CO)C[C@@H]3O[C@H]1C[C@H](N)[C@@H](O)[C@H](C)O1 [Epirubicin, Epirubicin Hydrochloride]	58
COc1cc([C@@H]2c3cc4c(cc3[C@H](O)[C@H]3COC(=O)[C@H]23)OCO4)cc(OC)c1OC	9

* * *

- Test system: primary rat microglia
- test-name: Cell toxicity (dead cells, size <150 μm2) in coated fibrin (cFib) assay;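 also: share of dead cells sized under 150 µm2 at 10 µM in fibrin-stimulated microglia HTS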
- measurement-setup: primary microglia HTS, fibrin stimulation, cell size <150 μm2 as marker of toxicity
Counter-ions that a name gives are not always drawn.

molecule	test-system	Fibrin % cell toxicity / %
CCOC(=O)[C@H](CCc1ccccc1)N[C@@H](C)C(=O)N1Cc2ccccc2C[C@H]1C(=O)O [Quinapril]	primary rat microglia	1
C=C[C@H]1CN2CC[C@H]1C[C@H]2[C@H](OC(=O)OCC)c1ccnc2ccc(OC)cc12 [Quinine Ethyl Carbonate]	primary rat microglia	0
O=C(O)c1cc(O)c2c(c1)[C@H]([C@H]1c3cc(C(=O)O)cc(O)c3C(=O)c3c(O[C@@H]4O[C@H](CO)[C@@H](O)[C@H](O)[C@H]4O)cccc31)c1cccc(O[C@@H]3O[C@H](CO)[C@@H](O)[C@H](O)[C@H]3O)c1C2=O [Sennoside A]	primary rat microglia	1
CC(=O)OCC(=O)NCCCOc1cccc(CN2CCCCC2)c1 [Roxatidine acetate]	primary rat microglia	1
C=CC[N+]1([C@H]2C[C@H]3[C@@H]4CC[C@H]5C[C@H](O)[C@@H](N6CCOCC6)C[C@]5(C)[C@H]4CC[C@]3(C)[C@H]2OC(C)=O)CCCC1 [Rocuronium]	primary rat microglia	1
O=C(O)CCc1nc2ccccc2[nH]1 [Procodazole]	primary rat microglia	1
CN[C@@H]1[C@@H](O)[C@@H](O[C@@H]2[C@@H](O)[C@H](O[C@H]3OC(CN)=CC[C@H]3N)[C@@H](N)C[C@H]2N)OC[C@]1(C)O [Sisomicin Sulfate]	primary rat microglia	0
CCC[C@H](N[C@@H](C)C(=O)N1[C@H](C(=O)O)C[C@@H]2CCCC[C@@H]21)C(=O)OCC [Perindopril]	primary rat microglia	0
C[Se]CC[C@H](N)C(=O)O [Selenomethionine]	primary rat microglia	1

* * *

- System: primary rat microglia
- measurement-setup: rat
Structures can show the parent of a compound that is named as a salt.
Response key: satisfied means Fibrin % cell toxicity >= 1%; not satisfied means Fibrin % cell toxicity < 1%.

compound	test-system	classification
CC(C(=O)O)c1ccc2c(c1)[nH]c1ccc(Cl)cc12 (centres unmarked)	primary rat microglia	not satisfied
Oc1cccc2cccnc12	primary rat microglia	satisfied
C#C[C@]1(O)CC[C@H]2[C@@H]3CCC4=CC(=O)CC[C@@H]4[C@H]3CC[C@@]21C [Norethindrone]	primary rat microglia	not satisfied
O=C(O)CCC(=O)OC[C@@H](NC(=O)C(Cl)Cl)[C@H](O)c1ccc([N+](=O)[O-])cc1 [CHLOR[…]]	primary rat microglia	satisfied
COc1ccc(O)cc1 [Mequinol, reference compound]	primary rat microglia	satisfied
CN1CCN(CCCN2c3ccccc3Sc3ccc(C(F)(F)F)cc32)CC1 [Trifluoperazine dihydrochloride, reference compound]	primary rat microglia	satisfied
O=C(O)c1cc(-c2ccc(F)cc2F)ccc1O	primary rat microglia	not satisfied
C[C@@H]1C[C@H]2[C@@H]3CCC4=CC(=O)C=C[C@]4(C)[C@@]3(F)[C@@H](O)C[C@]2(C)[C@@]1(O)C(=O)COP(=O)(O)O [Dexamethasone Phosphate]	primary rat microglia	satisfied
O=C(CCCCCCC(=O)Nc1ccccc1)NO	primary rat microglia	satisfied

* * *

- System: primary rat microglia
- measurement-setup: rat
Where a name gives a salt, the structure may show the parent alone.

molecule	unit-descriptor	LPS % cell toxicity
O=C(O)CCC(=O)c1ccc(-c2ccccc2)cc1	%	0
O=C1c2c(O)cccc2Cc2cccc(O)c21	%	1
CCCc1nc(C)c2c(=O)[nH]c(-c3cc(S(=O)(=O)N4CCN(CC)CC4)ccc3OCC)nn12	%	0
Nc1nc2c(ncn2CCC(CO)CO)c(=O)[nH]1	%	0
CCCOc1cc(N)ccc1C(=O)OCCN(CC)CC	%	0
CC(=O)OC1CC2CCC1(C)C2(C)C (stereo not drawn) [Bornyl Acetate]	%	0
CN1C[C@H](C(=O)N[C@]2(C)O[C@@]3(O)[C@@H]4CCCN4C(=O)[C@H](Cc4ccccc4)N3C2=O)C=C2c3cccc4[nH]cc(c34)C[C@H]21 [Ergotamine]	%	0
CCCCCCCCCCOc1cc2c(O)c(C(=O)OCC)cnc2cc1OCC [Decoquinate]	%	1
C=CCSCC1Nc2cc(Cl)c(S(N)(=O)=O)cc2S(=O)(=O)N1 (stereo not drawn) [Althiazide]	%	1
CC(=O)Nc1ccc(OC(=O)c2ccccc2O)cc1	%	1
COc1ccc(O)cc1 [Mequinol, reference compound]	%	1
O=C(O)c1cn(-c2ccc(F)cc2)c2cc(N3CCNCC3)c(F)cc2c1=O	%	0
CN(Cc1cnc2nc(N)nc(N)c2n1)c1ccc(C(=O)N[C@@H](CCC(=O)O)C(=O)O)cc1 [Methotrexate]	%	0
CC1CCC(NC(=O)N(CCCl)N=O)CC1 (stereo not drawn)	%	0
Cc1nc2n(c(=O)c1CCN1CCC(c3noc4cc(F)ccc34)CC1)CCCC2O (stereo not drawn)	%	0
CC[C@]1(O)C[C@@H]2CN(CCc3c([nH]c4ccccc34)[C@@](C(=O)OC)(c3cc4c(cc3OC)N(C)[C@H]3[C@@](O)(C(=O)OC)[C@H](OC(C)=O)[C@]5(CC)C=CCN6CC[C@]43[C@@H]65)C2)C1 [Vinblastine sulfate, reference compound]	%	8
Nc1nc2c(ncn2COCCO)c(=O)[nH]1	%	1
CC(=O)N[C@@H](CS)C(=O)O	%	0
CN(C/C=C/c1ccccc1)Cc1cccc2ccccc12	%	0
Cc1c(NC(C)C)c(=O)n(-c2ccccc2)n1C	%	0
N#C[C@@H]1C[C@@H]2C[C@@H]2N1C(=O)[C@@H](N)C12CC3CC(CC(O)(C3)C1)C2	%	0
CCN(CC)CCNC(=O)c1c(C)[nH]c(/C=C2\C(=O)Nc3ccc(F)cc32)c1C	%	27
CC1CC(OC(=O)C(O)c2ccccc2)CC(C)(C)N1C (stereo not drawn) [Eucatropine Hydrochloride]	%	0
COc1ccc(Cc2cnc(N)nc2N)cc1OC	%	1
CN(C)CCC=C1c2ccccc2COc2ccccc21 [Doxepin]	%	0
Nc1c2c(nc3ccccc13)CCCC2	%	0
O=c1[nH]cc(F)c(=O)[nH]1 [Fluorouracil, reference compound]	%	1
CC(=O)OCC(=O)[C@@]1(O)[C@H](C)C[C@H]2[C@@H]3CCC4=CC(=O)C=C[C@]4(C)[C@@]3(F)[C@@H](O)C[C@@]21C [Dexamethasone acetate, reference compound]	%	7
Cc1oc(=O)oc1CN1CCN(c2cc3c(cc2F)c(=O)c(C(=O)O)c2n3C(C)S2)CC1 (stereo not drawn)	%	0
Cn1nnc2c(C(N)=O)ncn2c1=O [Temozolomide]	%	0
CC(CN(C)C)CN1c2ccccc2Sc2ccccc21 (stereo not drawn)	%	0
CN(C(=O)C(Cl)Cl)c1ccc(OC(=O)c2ccco2)cc1 [Diloxanide Furoate]	%	0
C[C@]12CC[C@@H]3c4ccc(O)cc4CC[C@H]3[C@@H]1CC[C@@H]2O	%	0
CCN(CC)C(=O)c1ccc(O)c(OC)c1	%	0
CCCCCCCCCCCCCCCCCCCCCCO	%	0
CC(C)N(CCC(C(N)=O)(c1ccccc1)c1ccccn1)C(C)C (stereo not drawn) [Disopyramide]	%	0

* * *

Measured inhibition at 10 µM by item
- Tested on: fibrin-induced microglia activation
- test-name: Image-based assay of fibrin-induced microglia activation (HTS and dose response)
- Type: cell-based, rat
- measurement-setup: Rattus norvegicus, Microglia, primary microglia HTS, fibrin stimulation, cell size >800 μm2 as marker of activation; read-out: Fibrin % inhibition
Counter-ions that a name gives are not always drawn.
reported-property: inhibition at 10 µM (%)

> print(dat)
                                   molecule  unit.descriptor  obs.value
1                           O=C(O)c1ccccc1O                %        -32
2  CCCN(CCC)C(=O)C(CCC(=O)O)NC(=O)c1ccccc1 (centres unmarked) [Proglumide]                %         -4
3  CC(=O)N[C@@H](CC(=O)N[C@@H](CCC(=O)O)C(=O)O)C(=O)O                %        -15
4  CC(=O)Oc1cc2c(s1)CCN(C(C(=O)C1CC1)c1ccccc1F)C2 (centres unmarked)                %         15
5  CC(=O)[C@H]1CC[C@H]2[C@@H]3CC=C4C[C@@H](OC(=O)CCC(=O)O)CC[C@]4(C)[C@H]3CC[C@]12C [Pregnenolone Succinate]                %          4
6          CC[C@@H]1C(=O)OC[C@@H]1Cc1cncn1C                %         -2
7  CN1CCN(c2c(F)cc3c(=O)c(C(=O)O)cn4c3c2SCC4)CC1 [Rufloxacin Hydrochloride]                %         -3
8  O=C([O-])[C@H](O)[C@@H](O)[C@H](O)[C@H](O)CO.[Na+] [Sodium Gluconate]                %          1
